Measured values drawn from paper PMC10254843 for this set.

# MEASUREMENT NOTES: Half-wave potentials by cyclic voltammetry
# Type: physicochemical
# EXPERIMENTAL PARAMETERS: signed value
ASSAY METRIC: half-wave potential (mV)
The response must be a number in mV with no trailing unit.

Reference set (4 entries):
O=C(C1=C(Nc2ccccc2)C(=O)c2ccccc2C1=O)c1ccco1    −578
O=C(C1=C(Nc2ccccc2)C(=O)c2ccccc2C1=O)c1ccsc1    −635
O=C(C1=C(Nc2ccccc2)C(=O)c2ccccc2C1=O)c1ccc[nH]1    −685
O=C(C1=C(Nc2ccccc2)C(=O)c2ccccc2C1=O)c1cccs1    −552

Look at this molecule and give its reported half-wave potential. O=C(C1=C(Nc2ccccc2)C(=O)c2ccccc2C1=O)c1ccccc1 −695
